Where these numbers come from: patent US20230242662A1

Biological target: T1, cynoCD46-His (cynomolgus, UniProt A0A2K5WCL8 35-328)
T1 construct: extracellular domain; Immobilised by amine coupling on the SPR chip; not shown: His tag
T1 sequence: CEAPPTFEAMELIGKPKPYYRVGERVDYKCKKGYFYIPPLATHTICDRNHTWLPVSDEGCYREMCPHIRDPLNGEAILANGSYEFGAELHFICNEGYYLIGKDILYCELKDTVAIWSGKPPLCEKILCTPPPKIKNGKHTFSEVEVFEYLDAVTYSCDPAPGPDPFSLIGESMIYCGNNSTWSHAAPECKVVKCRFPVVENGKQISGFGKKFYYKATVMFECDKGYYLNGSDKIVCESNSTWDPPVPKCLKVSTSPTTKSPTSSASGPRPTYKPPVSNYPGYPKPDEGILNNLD
Assay: SPR, cynoCD46-His immobilised, antibody as analyte, pH 6.5
Mark Not met for koff values under 0.001 s⁻¹, and Met for everything at or above.

Please review the entries below; each comes with its answer.
>  <Binder>
BA-133-04-02 (antibody, V domains shown, also called CPE hit BA133-04-02) VH: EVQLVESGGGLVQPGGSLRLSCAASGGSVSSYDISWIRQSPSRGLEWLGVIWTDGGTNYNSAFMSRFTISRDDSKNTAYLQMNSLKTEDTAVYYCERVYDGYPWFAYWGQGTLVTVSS VL: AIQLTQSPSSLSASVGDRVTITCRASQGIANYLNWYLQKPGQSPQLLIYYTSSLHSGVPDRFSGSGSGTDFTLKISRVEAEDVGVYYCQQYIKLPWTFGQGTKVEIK

>  <Class>
Not met

$$$$
>  <Binder>
BA-133-04-04 (antibody, V domains shown, the killing assays used the ADC form; also called CPE hit BA133-04-04) VH: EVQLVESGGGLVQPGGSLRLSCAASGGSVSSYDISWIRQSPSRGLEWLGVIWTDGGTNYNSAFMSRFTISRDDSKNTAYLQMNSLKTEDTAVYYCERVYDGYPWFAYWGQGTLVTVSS VL: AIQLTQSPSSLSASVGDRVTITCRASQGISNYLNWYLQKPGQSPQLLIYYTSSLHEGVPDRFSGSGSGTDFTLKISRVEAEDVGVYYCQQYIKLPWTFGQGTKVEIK

>  <Class>
Met

$$$$

Task: Threshold query (koff >= 0.001 s⁻¹) on BA-133-04-03 (antibody, V domains shown, also called CPE hit BA133-04-03) VH: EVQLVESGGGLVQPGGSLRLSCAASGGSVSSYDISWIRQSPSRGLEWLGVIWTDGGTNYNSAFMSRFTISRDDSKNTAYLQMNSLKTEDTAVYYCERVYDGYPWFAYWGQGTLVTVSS VL: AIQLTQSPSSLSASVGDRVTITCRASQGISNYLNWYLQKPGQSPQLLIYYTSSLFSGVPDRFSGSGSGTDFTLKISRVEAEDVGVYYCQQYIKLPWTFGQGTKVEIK
Result: Met

Task: Given BAP133-2-02-12 (antibody, V domains shown, also called BAP133-02-02-12; CPE hit BAP133-2-02-12) VH: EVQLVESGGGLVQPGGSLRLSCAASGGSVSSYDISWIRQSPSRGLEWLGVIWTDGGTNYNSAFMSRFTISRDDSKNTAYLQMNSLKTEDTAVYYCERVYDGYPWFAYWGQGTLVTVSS VL: AIQLTQSPSSLSASVGDRVTITCRALQGISNYLNWYQQKPGKAPKLLIYYTSSLHSGVPSRFSGSGSGTEFTLTISSLQPDDFATYYCQQYIKLPWTFGQGTKVEIK , state whether its koff is at least 0.001 s⁻¹.
Result: Met

Task: In plain terms: is recorded koff at least 0.001 s⁻¹ for BAP133-2-03-03-SL (antibody, V domains shown, the killing assays used the ADC form; also called BAP133-02-03-03-SL; CPE hit BAP133-2-03-03-SL) VH: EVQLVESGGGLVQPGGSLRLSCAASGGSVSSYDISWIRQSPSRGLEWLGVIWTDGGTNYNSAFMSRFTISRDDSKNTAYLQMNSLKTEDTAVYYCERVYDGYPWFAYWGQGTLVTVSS VL: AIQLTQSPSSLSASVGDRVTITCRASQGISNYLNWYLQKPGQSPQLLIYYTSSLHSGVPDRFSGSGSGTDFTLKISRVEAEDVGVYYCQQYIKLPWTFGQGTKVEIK ?
Result: Met
